Data credit: patent US20100260765A1

measuredOn: human KDR (human, UniProt P35968 20-1356)
Sequence (P35968 20-1356): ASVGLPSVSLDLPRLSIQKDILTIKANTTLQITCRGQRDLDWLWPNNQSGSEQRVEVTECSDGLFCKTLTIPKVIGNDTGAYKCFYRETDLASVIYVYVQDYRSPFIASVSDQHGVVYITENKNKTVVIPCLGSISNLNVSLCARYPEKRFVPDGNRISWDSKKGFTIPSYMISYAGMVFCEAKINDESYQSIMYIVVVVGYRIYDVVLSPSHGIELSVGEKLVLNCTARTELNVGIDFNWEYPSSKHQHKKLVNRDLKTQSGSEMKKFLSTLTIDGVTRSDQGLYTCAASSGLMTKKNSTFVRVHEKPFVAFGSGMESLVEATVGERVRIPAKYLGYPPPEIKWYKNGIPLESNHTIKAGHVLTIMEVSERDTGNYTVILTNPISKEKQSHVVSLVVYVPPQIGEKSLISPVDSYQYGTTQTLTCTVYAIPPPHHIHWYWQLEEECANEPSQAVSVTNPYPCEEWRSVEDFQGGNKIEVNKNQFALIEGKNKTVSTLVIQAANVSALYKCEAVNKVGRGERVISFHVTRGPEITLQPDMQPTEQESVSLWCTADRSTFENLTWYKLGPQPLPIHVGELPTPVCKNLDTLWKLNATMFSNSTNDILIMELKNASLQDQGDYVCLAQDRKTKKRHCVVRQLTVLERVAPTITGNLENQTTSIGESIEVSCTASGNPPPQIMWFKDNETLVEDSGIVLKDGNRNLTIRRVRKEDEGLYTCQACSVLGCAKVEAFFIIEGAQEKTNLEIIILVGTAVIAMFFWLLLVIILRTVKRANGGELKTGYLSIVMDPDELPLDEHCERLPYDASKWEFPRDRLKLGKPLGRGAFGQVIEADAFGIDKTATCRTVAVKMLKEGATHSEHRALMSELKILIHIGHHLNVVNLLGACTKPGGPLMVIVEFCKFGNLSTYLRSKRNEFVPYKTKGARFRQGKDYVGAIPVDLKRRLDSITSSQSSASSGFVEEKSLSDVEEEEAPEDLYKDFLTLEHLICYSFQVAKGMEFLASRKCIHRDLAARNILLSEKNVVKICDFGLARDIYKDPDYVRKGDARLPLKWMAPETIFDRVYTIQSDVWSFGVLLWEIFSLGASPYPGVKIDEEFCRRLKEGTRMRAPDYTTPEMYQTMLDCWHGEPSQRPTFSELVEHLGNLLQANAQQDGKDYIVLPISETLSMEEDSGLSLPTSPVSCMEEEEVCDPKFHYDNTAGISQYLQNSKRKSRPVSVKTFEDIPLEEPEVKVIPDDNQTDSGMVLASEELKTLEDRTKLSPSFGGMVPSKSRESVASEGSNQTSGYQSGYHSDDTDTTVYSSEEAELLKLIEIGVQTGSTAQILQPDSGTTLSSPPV
assayRemarks: cell-based or functional assay
recordedEndpoint: KDR tyrosine phosphorylation in HUVEC, Maximum Inhibition at 100 nM (% Inhibition), N = 2

binder="32F4 (antibody, V domains shown, Fully human monoclonal antibody from a XenoMouse hybridoma (IgG2 or IgG4 strain), purified) VH: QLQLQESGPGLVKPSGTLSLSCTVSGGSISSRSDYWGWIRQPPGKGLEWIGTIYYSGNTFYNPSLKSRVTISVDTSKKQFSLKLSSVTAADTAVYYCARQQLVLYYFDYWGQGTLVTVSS VL: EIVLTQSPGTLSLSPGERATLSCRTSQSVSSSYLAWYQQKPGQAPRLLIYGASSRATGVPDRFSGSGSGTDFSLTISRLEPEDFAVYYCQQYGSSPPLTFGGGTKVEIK" observedmeasurement=79%
binder="21H6 (antibody, V domains shown, Fully human monoclonal antibody from a XenoMouse hybridoma, purified) VH: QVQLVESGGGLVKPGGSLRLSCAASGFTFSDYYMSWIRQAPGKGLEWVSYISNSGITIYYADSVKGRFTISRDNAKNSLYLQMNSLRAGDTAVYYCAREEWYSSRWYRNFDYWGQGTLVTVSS VL: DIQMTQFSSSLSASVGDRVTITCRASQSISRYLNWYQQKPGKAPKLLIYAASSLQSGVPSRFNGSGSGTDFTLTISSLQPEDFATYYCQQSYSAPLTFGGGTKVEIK" observedmeasurement=84%
binder="22B8 (antibody, V domains shown, Fully human monoclonal antibody from a XenoMouse hybridoma (IgG2 or IgG4 strain), purified) VH: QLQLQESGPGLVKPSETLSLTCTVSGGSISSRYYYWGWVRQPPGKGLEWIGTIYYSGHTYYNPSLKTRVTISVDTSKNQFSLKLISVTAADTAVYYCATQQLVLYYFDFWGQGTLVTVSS VL: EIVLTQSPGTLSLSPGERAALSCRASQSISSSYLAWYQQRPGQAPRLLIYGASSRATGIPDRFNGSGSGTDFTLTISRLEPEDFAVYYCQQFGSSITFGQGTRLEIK" observedmeasurement=79%
